Cited source for all entries: patent US20200016159A1

biological target: human adenosine A2b receptor (Homo sapiens, UniProt P29275); test: Cellular in vitro reporter gene test for A2b receptor activity (antagonism of NECA); details: recombinant CHO-K1 cells, CRE-luciferase reporter, co-incubation with EC50 concentration of NECA, 3 hours
Sequence (P29275 whole entry): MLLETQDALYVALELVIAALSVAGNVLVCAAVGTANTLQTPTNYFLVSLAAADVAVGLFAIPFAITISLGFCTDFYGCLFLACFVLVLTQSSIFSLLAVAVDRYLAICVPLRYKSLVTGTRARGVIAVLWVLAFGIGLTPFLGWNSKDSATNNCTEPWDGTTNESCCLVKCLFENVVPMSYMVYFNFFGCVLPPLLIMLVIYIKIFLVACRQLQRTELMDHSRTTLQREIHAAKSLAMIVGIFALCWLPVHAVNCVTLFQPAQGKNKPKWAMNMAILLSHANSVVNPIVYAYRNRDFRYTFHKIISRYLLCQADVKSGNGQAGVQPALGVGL
readoutName: IC50 (nM)

The examples below pair each entry with its known result.
                                   molecule  readoutname  numericreadout
0  COCCn1c(=O)n(C2CC2C(F)(F)F)c(=O)c2c(C)c(CN3CCNC3=O)sc21 (single isomer, unassigned) [Example 296]         IC50              16
1  COCCn1c(=O)n(C2CC2C)c(=O)c2c(C)c(CN3CCNC3=O)sc21 (single isomer, unassigned) [Example 95]         IC50              26
2  Cc1c(Cn2nc[nH]c2=O)sc2c1c(=O)n(C1CC(C)(C)C1)c(=O)n2CCC(F)(F)F         IC50              16

[P] CCn1c(=O)n(C2CC2C)c(=O)c2c(C)c(CN3CCNC3=O)sc21 (single isomer, unassigned) [Example 226]
[Q] Cc1c(CN2CCNC2=O)sc2c1c(=O)n(C1CC1(C)C)c(=O)n2CCCF (single isomer, unassigned) [Example 99]
[R] Cc1c(Cn2[nH]ccc2=O)sc2c1c(=O)n(C1CC1C)c(=O)n2CCOC(F)(F)F (single isomer, unassigned) [Example 274]
[S] Cc1c(CN2CCNC2=O)sc2c1c(=O)n(C1CC1(C)C)c(=O)n2CCC(F)(F)F (racemic) [Example 100]
[T] Cc1c(CN2CCNC2=O)sc2c1c(=O)n([C@H]1C[C@@H]1C)c(=O)n2CC1CCC(F)(F)C1 (stereo partly drawn) [Example 255]
Rank entries according to their IC50, from the largest number down. Show the ranking through the labels, in the order asked for.
R, Q, S, T, P
(R: 86 nM, Q: 28 nM, S: 12 nM, T: 6.7 nM, P: 1.9 nM)

[1] COCCn1c(=O)n(C2(C)CC2)c(=O)c2c(C)c(CN3CCNC3=NC(=O)OC)sc21
[2] Cc1c(Cn2nc[nH]c2=O)sc2c1c(=O)n(C1(C)CC1)c(=O)n2CC1CCC1
[3] CCn1c(=O)n(C2CC2C)c(=O)c2c(C)c(CN3CCNC3=O)sc21 (single isomer, unassigned) [Example 225]
Put the molecules in ascending order of IC50. Please express your ranking as an ordered list of the labels.
1, 3, 2
(1: 15 nM, 3: 26 nM, 2: 65 nM)

[A] Cc1c(CN2CCNC2=O)sc2c1c(=O)n(C1(C)CC1)c(=O)n2C[C@@H]1CCCO1
[B] COCCn1c(=O)n(C2CC2)c(=O)c2c(C)c(CN3CCNC(=O)C3=O)sc21
Between these two entries, A and B , state which has the higher IC50. Pick one; state its label.
A

[1] Cc1c(Cn2nc[nH]c2=O)sc2c1c(=O)n(C1CC1)c(=O)n2CCC(F)(F)F
[2] COCCn1c(=O)n(C2(C(F)(F)F)CC2)c(=O)c2c(C)c(Cn3nc[nH]c3=O)sc21
// compare: 1 vs 2 , metric IC50, want the smaller Write down the label attached to your selection.
1
